Molecular target: T1, Anti-PSMA Fab (SEQ ID NOs: 19, 20)
T1 construct: also called 006 PSMA Fab
Assay: phage ELISA; clonal phage on captured PSMA Fab pre-incubated with PSMA antigen as competitor, anti-M13 HRP detection
Label fulfilled when Phage binding ELISA, Anti-PSMA Fab signal in the presence of PSMA is strictly below 0.06; at or above that, label not fulfilled.

Q) Take the binder MCFVTGWGVPDDCN [Phage-1758] and say whether its Phage binding ELISA, Anti-PSMA Fab signal in the presence of PSMA is less than 0.06.
A) not fulfilled

Q) Could you please tell me whether Phage binding ELISA, Anti-PSMA Fab signal in the presence of PSMA recorded for LTRCVPDWMCYRAV [Phage-1748] is less than 0.06?
A) not fulfilled

Q) State whether 0.06 exceeds Phage binding ELISA, Anti-PSMA Fab signal in the presence of PSMA recorded for ILPCHWYTSDCPQH (also called Peptide-200) [Phage-1750] .
A) not fulfilled

Q) Below 0.06 on Phage binding ELISA, Anti-PSMA Fab signal in the presence of PSMA? Entry QCTWNEKTWWMECE [Phage-1754]
A) fulfilled

Q) Determine if WCWVQDDRRHVVCG [Phage-1751] shows Phage binding ELISA, Anti-PSMA Fab signal in the presence of PSMA strictly lower than 0.06.
A) fulfilled

Q) Item HCLWHESSGRVLCF [Phage-1742] : Phage binding ELISA, Anti-PSMA Fab signal in the presence of PSMA beneath 0.06, strictly?
A) not fulfilled

Q) Is Phage binding ELISA, Anti-PSMA Fab signal in the presence of PSMA strictly under 0.06 for the entry MCQWDELNYWMDCD [Phage-1752] ?
A) fulfilled

Q) Is it true that Phage binding ELISA, Anti-PSMA Fab signal in the presence of PSMA reported for QCVWDRGTWWMACD [Phage-1759] is less than 0.06?
A) fulfilled

The measurements presented in this section are drawn from patent US20260242478A1.
